src = patent US20230312524A1

Examples of compounds with documented pEC50 follow.
- Experimental Target: α1A-ARS (Homo sapiens)
- Assay Remarks: Calcium flux assay (Calcium 6 dye) in cells expressing an α1-AR
- Assay type: cell-based
- Measurement Context: calcium flux, α1A-AR; mean of at least three experiments; read-out: Average PEC50
pEC50: −log10 of the molar value.

Clc1c(CC2=NCCN2)ccc2occc12 [Compound 52]	6.01 to 8.00
Cn1nccc1-c1ccc(CC2=NCCN2)cc1Cl [Compound 1]	< 6.00
Clc1ccccc1CC1=NCCN1 [Compound 153]	6.01 to 8.00
Cc1oc2c(CC3=NCCN3)cccc2c1C [Compound 45]	6.01 to 8.00
Cc1c(CC2=NCCN2)ccc(-c2ncco2)c1Cl [Compound 12]	6.01 to 8.00

Query block: Hi! What's the reported pEC50 for Cc1c(CC2=NCCN2)cccc1-c1cn[nH]c1 [Compound 6] on α1A-ARS (Homo sapiens)?
Result block: 6.01 to 8.00

Query block: Hi! What's the reported pEC50 for Cc1c(CC2=NCCN2)ccc2cc[nH]c12 [Compound 61] on α1A-ARS (Homo sapiens)?
Result block: 6.01 to 8.00

---

- Experimental Target: α1A-ARS (Homo sapiens, UniProt P35348)
- Assay Remarks: Calcium flux assay (Calcium 6 dye) in cells expressing an α1-AR
- Assay type: cell-based
- Measurement Context: read-out: Average Emax
Examples of compounds with documented Emax follow.

COc1cc(Cl)ccc1CC1=NCCN1	21 to 60%

Query block: Hi! What's the reported Emax for `Cc1c(CC2=NCCN2)cccc1C(F)(F)F` on α1A-ARS (Homo sapiens, UniProt P35348)?
Result block: 21 to 60%

Query block: Hi! What's the reported Emax for `Cc1oc2c(CC3=NCCN3)cccc2c1C` on α1A-ARS (Homo sapiens, UniProt P35348)?
Result block: > 61%

Query block: Hi! What's the reported Emax for `CCc1cc(Cl)ccc1CC1=NCCN1` on α1A-ARS (Homo sapiens, UniProt P35348)?
Result block: > 61%

Query block: Hi! What's the reported Emax for `Cc1cc(Cl)ccc1CC1=NCCN1` on α1A-ARS (Homo sapiens, UniProt P35348)?
Result block: 21 to 60%

Query block: Hi! What's the reported Emax for `Cc1c(CC2=NCCN2)cc(C)c2occc12` on α1A-ARS (Homo sapiens, UniProt P35348)?
Result block: 21 to 60%

Query block: Hi! What's the reported Emax for `Clc1c(CC2=NCCN2)ccc2occc12` on α1A-ARS (Homo sapiens, UniProt P35348)?
Result block: < 20%

Query block: Hi! What's the reported Emax for `Cc1ccc(OC(F)(F)F)cc1CC1=NCCN1` on α1A-ARS (Homo sapiens, UniProt P35348)?
Result block: > 61%

Query block: Hi! What's the reported Emax for `FC(F)(F)c1cccc(Cl)c1CC1=NCCN1` on α1A-ARS (Homo sapiens, UniProt P35348)?
Result block: > 61%

Query block: Hi! What's the reported Emax for `Cc1cc(C(F)(F)F)ccc1CC1=NCCN1` on α1A-ARS (Homo sapiens, UniProt P35348)?
Result block: 21 to 60%

Query block: Hi! What's the reported Emax for `Cc1oc2cc(CC3=NCCN3)ccc2c1C` on α1A-ARS (Homo sapiens, UniProt P35348)?
Result block: 21 to 60%

---

- Experimental Target: α1A-ARS (Homo sapiens)
- Assay Remarks: Calcium flux assay (Calcium 6 dye) in cells expressing an α1-AR
- Format: cell-based
- Measurement Context: calcium flux, α1A-AR; maximum effect relative to full agonist epinephrine; read-out: Average Emax
Examples of molecules with documented Emax follow.

Solved cases below.
CCc1c(CC2=NCCN2)ccc(S(=O)(=O)CF)c1Cl	> 61%
Cc1c(CC2=NCCN2)ccc(S(C)(=O)=O)c1Cl	21 to 60%

Query block: Hi! What's the reported Emax for `Clc1ccc(CC2=NCCN2)c(-c2ccon2)c1` on α1A-ARS (Homo sapiens)?
Result block: > 61%

Query block: Hi! What's the reported Emax for `Clc1ccc(CC2=NCCN2)c(-n2cccc2)c1` on α1A-ARS (Homo sapiens)?
Result block: > 61%

Query block: Hi! What's the reported Emax for `Cn1nccc1-c1ccc(CC2=NCCN2)cc1Cl` on α1A-ARS (Homo sapiens)?
Result block: < 20%

Query block: Hi! What's the reported Emax for `Cc1c(CC2=NCCN2)ccc(-c2ncco2)c1Cl` on α1A-ARS (Homo sapiens)?
Result block: < 20%

Query block: Hi! What's the reported Emax for `Clc1cn(-c2cn[nH]c2)c2cc(CC3=NCCN3)ccc12` on α1A-ARS (Homo sapiens)?
Result block: < 20%

Query block: Hi! What's the reported Emax for `FC(F)(F)c1ccc(CC2=NCCN2)c(C2CCCCC2)c1` on α1A-ARS (Homo sapiens)?
Result block: 21 to 60%

Query block: Hi! What's the reported Emax for `CCc1c(CC2=NCCN2)ccc(S(=O)(=O)C(F)(F)F)c1Cl` on α1A-ARS (Homo sapiens)?
Result block: 21 to 60%

Query block: Hi! What's the reported Emax for `Clc1ccc(CC2=NCCN2)c(-c2ccccc2)c1` on α1A-ARS (Homo sapiens)?
Result block: > 61%

Query block: Hi! What's the reported Emax for `Clc1ccc(CC2=NCCN2)c(C2CCOCC2)c1` on α1A-ARS (Homo sapiens)?
Result block: < 20%

Query block: Hi! What's the reported Emax for `Clc1ccc(CC2=NCCN2)c(-c2ncco2)c1` on α1A-ARS (Homo sapiens)?
Result block: > 61%

Query block: Hi! What's the reported Emax for `c1cc2c(cc1CC1=NCCN1)NCC21CC1` on α1A-ARS (Homo sapiens)?
Result block: 21 to 60%

Query block: Hi! What's the reported Emax for `Cc1c(CC2=NCCN2)ccc(S(=O)(=O)C(F)F)c1Cl` on α1A-ARS (Homo sapiens)?
Result block: 21 to 60%

Query block: Hi! What's the reported Emax for `Clc1ccc(CC2=NCCN2)c(-c2ccccn2)c1` on α1A-ARS (Homo sapiens)?
Result block: > 61%

Query block: Hi! What's the reported Emax for `CN(CC(F)(F)F)c1cc(C(F)(F)F)ccc1CC1=NCCN1` on α1A-ARS (Homo sapiens)?
Result block: < 20%

Query block: Hi! What's the reported Emax for `C[C@@H](O)c1ccc(CC2=NCCN2)c(Cl)c1` on α1A-ARS (Homo sapiens)?
Result block: > 61%

---

- Experimental Target: α1A-ARS (Homo sapiens, UniProt P35348)
- Sequence (P35348 1-466): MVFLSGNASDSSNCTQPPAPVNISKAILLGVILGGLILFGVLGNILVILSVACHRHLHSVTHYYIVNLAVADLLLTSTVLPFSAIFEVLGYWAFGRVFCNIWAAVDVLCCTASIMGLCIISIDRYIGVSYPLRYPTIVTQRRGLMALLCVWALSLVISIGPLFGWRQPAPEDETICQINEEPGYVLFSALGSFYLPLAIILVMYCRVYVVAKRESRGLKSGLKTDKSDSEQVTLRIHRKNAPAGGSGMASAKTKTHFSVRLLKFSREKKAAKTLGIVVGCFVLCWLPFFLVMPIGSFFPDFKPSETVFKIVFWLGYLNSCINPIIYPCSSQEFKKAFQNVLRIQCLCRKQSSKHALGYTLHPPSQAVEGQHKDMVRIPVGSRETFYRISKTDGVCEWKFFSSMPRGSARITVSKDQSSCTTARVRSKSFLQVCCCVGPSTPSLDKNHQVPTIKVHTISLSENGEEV
- Assay Remarks: Calcium flux assay (Calcium 6 dye) in cells expressing an α1-AR
- Assay type: cell-based
- Measurement Context: calcium flux, α1A-AR; maximum effect relative to full agonist epinephrine; read-out: Average Emax
- Description: Calcium flux experimental design: alpha-1 adrenergic receptors (α1-ARs) couple to Gq proteins, which results in downstream activation of phospholipase C and release of calcium from intracellular stores. Intracellular calcium increase upon α1-AR activation can be detected by Calcium 6 dye. […] For each assay well, baseline Calcium 6 fluorescence was detected for 18 seconds prior to 12 μL compound addition at 12 μL per second. […]
Measured Endpoint: Emax

Solved cases below.
Cc1c(CC2=NCCN2)ccc(Cl)c1-c1ccnn1C	< 20%
Clc1ccc(CC2=NCCN2)c(-c2cnccn2)c1	21 to 60%

Query block: Hi! What's the reported Emax for `C[C@@H](O)c1cc(Cl)ccc1CC1=NCCN1` on α1A-ARS (Homo sapiens, UniProt P35348)?
Result block: < 20%

Query block: Hi! What's the reported Emax for `COCc1cc(Cl)ccc1CC1=NCCN1` on α1A-ARS (Homo sapiens, UniProt P35348)?
Result block: 21 to 60%

Query block: Hi! What's the reported Emax for `CCc1c(CC2=NCCN2)ccc(S(C)(=O)=O)c1Cl` on α1A-ARS (Homo sapiens, UniProt P35348)?
Result block: 21 to 60%

Query block: Hi! What's the reported Emax for `Cc1c(CC2=NCCN2)ccc(S(=O)(=O)C(F)(F)F)c1Cl` on α1A-ARS (Homo sapiens, UniProt P35348)?
Result block: 21 to 60%
